I'd be grateful if you could share measured melting point for these entries.

Please state melting point for every compound in the list that follows.
1. CC(C)(C)c1nc2cc3c(cc2[nH]1)NC(=O)C3(C)C
2. COc1cc2nc(N3CCN(C(=O)C=Cc4cc(OC)c(OC)c(OC)c4)CC3)nc(N)c2cc1OC
3. Cc1cc(C=O)ccc1C=O
4. CC1(C)Oc2c(Cl)cc(Cl)cc2[C@@H](Br)[C@@H]1O (relative stereo)
5. CCCCOCCOc1ccc(-c2ccc3c(c2)C=C(C(=O)Nc2ccc(SCc4nncn4CCC)c(C)c2)CCN3CC(C)C)cc1
6. CC(C)[C@H]1CC[C@H](C(=O)N[C@H](Cc2ccc(OCc3ccc(C(F)(F)F)cc3)cc2)C(=O)O)CC1
7. COc1ccnc2[nH]cc(C(C)=O)c12

Found:
> 300 °C
141 to 146 °C
71 to 72 °C
46 °C
104 to 107 °C
171 to 172 °C
> 210 °C

// for each compound below, give its melting point
1. Nc1ccc(Cl)c2c(Cl)ccnc12
2. CN1CCc2c(c3ccc(-n4ccc(-c5ccc(C(F)(F)F)nc5)cc4=O)cc3n2C)C1
3. CCOC(=O)C=Cc1ccc(CCNS(=O)(=O)C=Cc2ccc(Cl)cc2)cc1
4. COC(=O)c1cc(N2CCOCC2)nc(Cl)n1

Found:
135 °C
295 to 300 °C
131 to 132 °C
135 to 138 °C

Batch: melting point for all items listed.
1. Cc1cc(SC(C)c2cccc3cn(-c4ccc(C(F)(F)F)cc4)nc23)ccc1OCC(=O)O (stereo not drawn)
2. O=C1N(Cc2ccccn2)c2ccccc2C12COc1cc3c(cc12)OCCCO3 (stereo not drawn)
3. CNC(=O)C1CCN(Cc2cnc3cc(NC(=O)c4ccc(-c5ccc(F)cc5)cc4)c(C)cc3c2)CC1
4. CC1(C)NC(=O)N(CC(O)Cc2cc(C(C)(C)C)c(O)c(C(C)(C)C)c2)C1=O (stereo not drawn)
5. CS(=O)(=O)SCCCCC(=O)O
6. C=CCOc1ccc(C(C)(C)C)cc1C(C(=O)O)c1ccccc1 (stereo not drawn)

Found:
62 to 64 °C
122 to 123 °C
257 °C
175 to 176 °C
69 to 71 °C
120 to 122 °C

* * *

Record form. Attribute: melting point. Fill in for each entry.

[
  {
    "Compound": "C=C(CN1C(=O)[C@H]2CCCN2C(=O)c2ccccc21)c1ccc(C(=O)Nc2ccccc2N)cc1",
    "Result": "160 to 162 °C"
  },
  {
    "Compound": "CCCOc1cccc(C(NC2CCN(C)CC2)c2nc3ccccc3s2)c1 (configuration not stated)",
    "Result": "90 °C"
  },
  {
    "Compound": "CCOC(=O)C(=O)c1ccc(SCC2CC2)[nH]1",
    "Result": "46 °C"
  },
  {
    "Compound": "OCCCc1cc(Cl)cc2nc(Cc3cccc(Cl)c3)oc12",
    "Result": "87 to 89 °C"
  }
]

List reported melting point for each of these compounds:
1. C1=C(c2cccc3ccccc23)CCN(Cc2ccccc2)C1
2. CCCCOc1nc(N)c2[nH]c(=O)n(CCCCN(CCCN3CCCC3=O)Cc3cccc(CC(=O)OC)c3)c2n1

Found:
1. 72 to 74 °C
2. 115 to 116 °C

Provide melting point for all items below, preserving their order.
1. COc1ccc(-c2cc3ccccc3[nH]2)cc1NC(=S)Nc1cccc(CC(=O)O)c1
2. CC(C)[C@@H]1CC[C@@H](C)C[C@@]1(O)CO

Found:
1. 174 to 175 °C
2. 48 to 50 °C

* * *

Kindly state melting point for each of the entries shown.

Worked examples, 2 compounds total:
[
  {
    "Compound": "C1CC(C23CSC(SC2)SC3)C1",
    "Result": "112 to 114 °C"
  },
  {
    "Compound": "COc1cccnc1CSCCNC(=C[N+](=O)[O-])SC",
    "Result": "87.5 to 88.5 °C"
  }
]

List reported melting point for each of these compounds:
1. CCCCCCCCCCCCCCCCCCSC(C)CC#N (stereo unspecified)
2. COc1ccccc1CCC(C)(O)CC1CCCCN1 (stereo unspecified)
3. COc1cc(Nc2c(C#N)cnc3cc(-c4coc(C=O)c4)c(OC)cc23)c(Cl)cc1Cl
4. N#CC(c1ccc(Cl)c(Cl)c1)c1c(Cl)cc([N+](=O)[O-])cc1Cl (stereo unspecified)
5. Nc1c(C(F)(F)F)cc2[nH]c(=O)c(=O)[nH]c2c1Cl
6. OCCCN1CCC(C(O)(c2ccc(F)cc2)c2ccc(F)cc2)CC1
7. COc1ccc(CCn2cnc3oc(C)c(C)c3c2=N)cc1
8. BrCc1cccc(OCc2ccccc2)c1

Found:
1. 38 °C
2. 115 to 116 °C
3. 238 to 241 °C
4. 171 to 172 °C
5. > 360 °C
6. 155 to 157 °C
7. 125 °C
8. 38 to 40 °C

Lookup: Suppose we examine the compound Cc1ccc(NC(C)CC(=O)NC(=O)OC(C)(C)C)cc1 (stereo unspecified) ; what melting point value has been reported?
Found: 84 to 85 °C

* * *

Kindly state melting point for each of the entries shown.

Reference set, count: 4
[
  {
    "Compound": "Cc1cc(C)c(S(=O)(=O)OC[C@@H]2C[C@@H]2COS(=O)(=O)c2c(C)cc(C)cc2C)c(C)c1",
    "melting point": "240 °C"
  },
  {
    "Compound": "CC(C)(C)c1cc(N2CCN(C(=O)c3ccc([N+](=O)[O-])cc3)C2=O)cc(C(C)(C)C)c1O",
    "melting point": "> 260 °C"
  },
  {
    "Compound": "N#Cc1cnc2cc(/C=C/CN3CCOCC3)ccc2c1Nc1ccc(Cl)cc1Cl",
    "melting point": "175 to 176 °C"
  },
  {
    "Compound": "CC1Nc2ccccc2NC1=S (stereo not given)",
    "melting point": "92 to 94 °C"
  }
]

From here, focus on the item given below.
Lookup: I'd like to know its melting point. The compound in question is COC(=O)C1=C(C)OC(OC)(OC)CC1NC(C)=O (stereo not given)
Found: 160 to 162 °C

* * *

So I've got a bunch of molecules here, and I need their melting point values.

[
  {
    "Molecule": "CCn1c(=O)n(-c2ccc(Oc3nc4cccnc4n3C)cc2)c2nccc(C(F)(F)F)c21",
    "melting point": "244 to 246 °C"
  }
]

State the recorded melting point for every item in the following list.
1. CCCOc1ccccc1C(=O)Nc1cc(SC)ccc1C(N)=O
2. O=C(NCCN1CCCC1)c1cccc(-c2cccc(OCCc3ccc(Cl)cc3Cl)n2)c1
3. COc1ccc(NCCCOc2ccc3ccc(OCCCNc4ccc(OC)cc4)cc3c2)cc1
4. O=C1CCC(c2ccc(OCC3CO3)c(Cl)c2)=NN1 (stereo not given)
5. CC(C)C=NNC1=NS(=O)(=O)c2ccccc21

Found:
178 to 181 °C
115 to 116 °C
127 °C
148 to 149 °C
225 °C

For the 3 molecules below, give their melting point values.
1. Cn1c(COc2ccc(CC3SC(=O)NC3=O)cc2)nc2ccc(Oc3cccc(NC(=O)Nc4ccccc4)c3)cc21 (stereo not given)
2. O=C(O)C(=O)c1ccc(OCCOc2ccc(-c3ccccc3)cc2)cc1
3. COC(=O)CCCc1nc(Cl)c2c(n1)[nH]c1ccccc12

Found:
["165 to 167 °C", "179 to 180 °C", "258 °C"]

Lookup: Form field: reported melting point of O=C(O)c1cn(-c2nncs2)c2cc(F)c(F)cc2c1=O
Found: 233 to 236 °C

* * *

Measured Parameter: melting point

[
  {
    "Compound": "O=P1(c2ccc(C(F)(F)F)cc2)c2ccccc2CN1c1ccccc1 (centres undefined)",
    "melting point": "187 to 189 °C"
  },
  {
    "Compound": "CC1(C)Oc2ccc(C#N)cc2[C@@H](NC=O)[C@@H]1O (relative stereo)",
    "melting point": "228 to 230 °C"
  },
  {
    "Compound": "Clc1cc(NCCc2c[nH]cn2)ccn1",
    "melting point": "164 to 165 °C"
  },
  {
    "Compound": "COc1ccc(S(=O)(=O)Nc2ccccc2NC(=O)c2ccccn2)cc1",
    "melting point": "174 to 175 °C"
  },
  {
    "Compound": "O=C(O)C1=Cc2cc(Cl)cc(I)c2OC1C(F)(F)F (centres undefined)",
    "melting point": "220 to 223 °C"
  },
  {
    "Compound": "CN1CCN(c2cc3c(cc2F)c(=O)c(C(=O)O)cn3CCO)CC1",
    "melting point": "270 °C"
  },
  {
    "Compound": "Cc1cc(Nc2nccc(N3CCC(C)CC3)n2)[nH]n1",
    "melting point": "193 to 195 °C"
  },
  {
    "Compound": "Cc1c(CC(=O)O)c2cc(OCc3ccccn3)ccc2n1Cc1ccc(Cl)cc1",
    "melting point": "231 to 233 °C"
  },
  {
    "Compound": "CCCNC(=O)C(C)NC(=O)C(C)NC(=O)C(C)NC(=O)OCc1ccccc1 (centres undefined)",
    "melting point": "268 to 269 °C"
  },
  {
    "Compound": "CS(=O)(=O)OC[C@@H]1CCC(=O)N1",
    "melting point": "72 to 74 °C"
  }
]

# batch: return melting point for each of the 4 compounds below
1. CCCCCCCCCCCCCCC(=O)NCCCN(C)C
2. Cc1ccc(SC2OC(COC(=O)c3ccccc3)C(O)C(OC(=O)c3ccccc3)C2OC(=O)c2ccccc2)cc1 (centres undefined)
3. CC1(C)SCCN(S(=O)(=O)c2ccc(-c3ccc(Br)cc3)cc2)C1C(=O)NO (centres undefined)
4. CC1CC1n1cc(C(=O)O)c(=O)c2cc(F)c(N3CCNCC3)cc21 (centres undefined)

Found:
1. 46 to 48 °C
2. 197 °C
3. 190 to 192 °C
4. 110 to 120 °C

Data provenance: a melting point compilation (Tetko et al.; mined from patent text by program, amines drawn as free bases though some values may be those of a salt)
